All figures here come from ChEMBL document CHEMBL1201862.

Target or system: Microphthalmia-associated transcription factor (Homo sapiens, UniProt O75030)
Sequence (O75030 whole entry): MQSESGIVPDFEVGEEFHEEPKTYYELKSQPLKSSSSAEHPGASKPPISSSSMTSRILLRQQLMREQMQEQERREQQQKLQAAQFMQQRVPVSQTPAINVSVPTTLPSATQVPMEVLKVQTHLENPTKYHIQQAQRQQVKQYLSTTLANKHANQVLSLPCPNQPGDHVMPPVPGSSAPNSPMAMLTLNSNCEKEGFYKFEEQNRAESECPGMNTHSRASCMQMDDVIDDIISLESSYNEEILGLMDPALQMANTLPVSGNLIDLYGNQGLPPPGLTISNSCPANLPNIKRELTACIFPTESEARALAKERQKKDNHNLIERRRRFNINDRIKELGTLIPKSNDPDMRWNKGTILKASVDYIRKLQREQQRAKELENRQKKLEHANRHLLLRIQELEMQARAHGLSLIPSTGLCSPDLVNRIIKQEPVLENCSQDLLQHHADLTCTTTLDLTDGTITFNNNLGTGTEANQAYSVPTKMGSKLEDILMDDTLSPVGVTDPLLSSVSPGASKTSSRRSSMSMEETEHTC
Method summary: TRPM1 promoter luciferase signal decrease, dose response, MITF inhibitor project, cell-based, SK-MEL-5, cherry-picked, set 3 (AID 493073);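 further: SK-MEL-5 melanoma cells with luciferase driven by the MITF target TRPM1 promoter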
Assay type: functional
Activity calls are given as the source filed them.
Respond using exactly one of the listed classes: 1.0 for active, 0.0 for inactive

Short answer needed: outcome of this test for `CCN(Cc1ccccc1)c1ccc(/C=N/N=C(N)N)cc1` ? 1.0

Check the results log: what was the call for `O=C(COC(=O)C1=COCCO1)Nc1c(F)cccc1F` ? 0.0

So what was the verdict on `C=CCn1c(C)cc(C2=NN=C(NC(C)(C)C)SC2)c1C` in this test? 1.0

Please indicate how the test categorized `N#CC1=C(c2ccccc2)/C(=C/c2ccccc2)OC1=O` . 1.0

###

Assign EC50 to each entry below.
Target or system: Heat shock factor protein 1 (Mus musculus)
Sequence (P38532 whole entry): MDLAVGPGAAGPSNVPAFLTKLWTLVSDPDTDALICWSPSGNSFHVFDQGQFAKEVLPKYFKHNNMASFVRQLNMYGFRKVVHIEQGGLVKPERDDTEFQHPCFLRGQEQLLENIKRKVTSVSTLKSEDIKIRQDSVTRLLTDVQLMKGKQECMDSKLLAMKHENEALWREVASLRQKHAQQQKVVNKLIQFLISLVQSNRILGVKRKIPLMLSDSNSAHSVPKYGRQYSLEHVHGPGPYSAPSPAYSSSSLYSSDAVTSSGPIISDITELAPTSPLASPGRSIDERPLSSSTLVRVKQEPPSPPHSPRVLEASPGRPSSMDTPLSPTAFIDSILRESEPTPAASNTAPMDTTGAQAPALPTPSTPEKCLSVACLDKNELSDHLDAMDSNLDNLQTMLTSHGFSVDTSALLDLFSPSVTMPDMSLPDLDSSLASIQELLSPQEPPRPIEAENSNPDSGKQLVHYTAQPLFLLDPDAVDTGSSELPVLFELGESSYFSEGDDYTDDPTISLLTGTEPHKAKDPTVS
Method summary: inhibition of MG132-induced HSE-luciferase signal, confirmation, cell-based, NIH3T3, luminescence, dose retest (AID 2382);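 further: NIH3T3 fibroblasts with HSF1-driven luciferase reporter stressed by proteasome inhibitor MG132; luminescence from HSF1-driven luciferase expression after 8 hours of MG132 stress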
Type: functional
Calls of active or inactive are those of the source.

Looking for the measured EC50 of CC1CN(C(=O)C(C)N2C(=O)c3ccccc3C2=O)CC(C)O1 (stereo unspecified) , can you help? 33.4 µM (active)

GET /values?readout=EC50&item= `N#C/C(=C/c1ccc(Br)o1)C(N)=O` > 195 µM (not active)

Looking for the measured EC50 of `O=C(COC(=O)c1cccs1)c1ccc2c(c1)OCCO2` , can you help? 0.213 µM (active)

I have this compound here, `CCCCS(=O)(=O)/C=C\C=C/S(=O)(=O)CCCC` , and I need its recorded EC50. 3.04 µM (active)

Return reported EC50; argument: `CC(C)(C)c1ccc(/C=N/N2C(=O)CSC2=S)cc1` 44.1 µM (active)

Please look up its EC50: O=C(NCCc1ccccc1)C(c1cccs1)N(C(=O)CCl)c1ccc(Cl)cc1 (stereo unspecified) 1.28 µM (active)

Which EC50 is reported for this compound? `CCc1ccccc1N(CC(=O)NCc1ccco1)C(=O)CCC(=O)Nc1ccccn1` 35.8 µM (active)

# EC50 lookup, item `COc1cccc(CC2(CO)CCN(S(=O)(=O)c3ccc(OC)cc3OC)CC2)c1` > 195 µM (not active)

Entry `O=C(Nc1cnn(Cc2ccc(F)cc2)c1)c1cc(-c2ccco2)on1` : reported EC50 = ? > 195 µM (not active)

Quick check: EC50 of `CCS(=O)(=O)c1ncc(Cl)c(C(=O)Nc2ccc(C)cc2)n1` ? 5.18 µM (inconclusive)

Please look up its EC50: `CCCCNC(=O)c1ccc(Cn2c(=S)[nH]c3c([nH]c4ccc(OC)cc43)c2=O)cc1` 3.02 µM (active)

Recorded EC50 for O=C(O)C1CCCCC1C(=O)Nc1cccc(C(=O)N2CCCCC2)c1 (stereo unspecified) , please? > 195 µM (not active)

Need EC50, item Cc1ccccc1NC(S)=NNC(=O)c1csc2c1CCC(C)C2 (stereo unspecified) < 0.16 µM (active)

Item under review: `COc1ccc(Nc2ncnc3ccc(Br)cc23)c(OC)c1` . Reported EC50? 0.354 µM (active)

Value lookup for EC50; key = CC(=O)c1ccc(OCC(O)CN2CCN(Cc3ccc4c(c3)OCO4)CC2)cc1 (stereo unspecified) > 195 µM (not active)

Please give the measured EC50 for this compound: COc1c(CC=C(C)C)cc(C2CC(=O)c3c(O)cc(O)cc3O2)cc1CC=C(C)C (stereo unspecified) 11.8 µM (active)

###

Method summary: NIH-3T3 fibroblast cytotoxicity, dose response, cytotoxicity control, cell-based, fluorescence, Alamar Blue, secondary assay (AID 2327);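 further: NIH-3T3 mouse fibroblasts cultured with fluconazole at 8 µg/mL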
Type: functional
Active and inactive are the calls of the source.
Permitted responses: active, inactive

Test call, this molecule: O=C1C2CCCN2C(c2ccccc2)N1c1ccccn1 (stereo not given) inactive

// param item: Cc1ccc(S(=O)(=O)C(C#N)c2nc3ccccc3nc2N2CCN(C)CC2)cc1C (stereo not given) ; yields the recorded call inactive

Lab log entry: `Fc1cccc2sc(Nc3nnc(-c4ccco4)o3)nc12` — outcome as called in the assay? active

What did this assay record as the result for `Cc1sc(NC(=O)c2ccc(Br)s2)c(C(N)=O)c1C` ? inactive

###

Method summary: cytotoxicity in HPDE-C7 cells, cell-based, fluorescence, HTS (AID 430)
Assay type: functional
Stated conditions: Homo sapiens
Activity calls are given as the source filed them.
Recorded metric: EC50

EC50 for `c1ccc(CN2CCN(c3nc(-c4ccccc4)nc(-n4ccnc4)n3)CC2)cc1` ? 9.94 µM (active)

For the molecule shown here, `Nc1c(C(=O)NCCc2ccccc2)c2nc3ccccc3nc2n1CCN1CCOCC1` , give the reported EC50. 9.43 µM (active)

Entry under review: `CCCCCCn1c(N2CCN(c3cccc(Cl)c3)CC2)nc2c1c(=O)[nH]c(=O)n2C` . Reported EC50? > 20 µM (not active)

Recorded EC50 for Cc1cccc(N2CCN(C(=O)c3cc4n(n3)C(C(F)(F)F)CC(c3ccco3)N4)CC2)c1C (centres undefined) , please? > 20 µM (not active)

###

Method summary: MC4R antagonists, dose response, counter-screen for LGR2 antagonist project, cell-based, plate reader, cherry pick (AID 743444);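 further: transfected HEK 293 cells stimulated with alpha-MSH peptide; potency of inhibitors of the alpha-MSH evoked signal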
Type: functional
The source made the active and inactive calls.
Answer each item with its documented AC50.

Look up AC50: `Cc1ccc(C(=O)Nc2ccc3ncccc3c2)cc1` 3.88 µM (active)

AC50 for `CC(C)CCn1cnc2c(oc3nc4c(cc32)CCCC4)c1=O` ? 3.8 µM (active)

Query: AC50; subject: `Cc1cc(C)c(C)c(S(=O)(=O)N2CCN(c3ncnc4ccccc34)CC2)c1C` 34.2 µM (active)

Form field: reported AC50 of `Cc1ccc2[nH]c(CSc3nc(C)ccc3C#N)nc2c1` 33.5 µM (active)

###

Target or system: Histone-lysine N-methyltransferase NSD2 (Homo sapiens)
Sequence (O96028 whole entry): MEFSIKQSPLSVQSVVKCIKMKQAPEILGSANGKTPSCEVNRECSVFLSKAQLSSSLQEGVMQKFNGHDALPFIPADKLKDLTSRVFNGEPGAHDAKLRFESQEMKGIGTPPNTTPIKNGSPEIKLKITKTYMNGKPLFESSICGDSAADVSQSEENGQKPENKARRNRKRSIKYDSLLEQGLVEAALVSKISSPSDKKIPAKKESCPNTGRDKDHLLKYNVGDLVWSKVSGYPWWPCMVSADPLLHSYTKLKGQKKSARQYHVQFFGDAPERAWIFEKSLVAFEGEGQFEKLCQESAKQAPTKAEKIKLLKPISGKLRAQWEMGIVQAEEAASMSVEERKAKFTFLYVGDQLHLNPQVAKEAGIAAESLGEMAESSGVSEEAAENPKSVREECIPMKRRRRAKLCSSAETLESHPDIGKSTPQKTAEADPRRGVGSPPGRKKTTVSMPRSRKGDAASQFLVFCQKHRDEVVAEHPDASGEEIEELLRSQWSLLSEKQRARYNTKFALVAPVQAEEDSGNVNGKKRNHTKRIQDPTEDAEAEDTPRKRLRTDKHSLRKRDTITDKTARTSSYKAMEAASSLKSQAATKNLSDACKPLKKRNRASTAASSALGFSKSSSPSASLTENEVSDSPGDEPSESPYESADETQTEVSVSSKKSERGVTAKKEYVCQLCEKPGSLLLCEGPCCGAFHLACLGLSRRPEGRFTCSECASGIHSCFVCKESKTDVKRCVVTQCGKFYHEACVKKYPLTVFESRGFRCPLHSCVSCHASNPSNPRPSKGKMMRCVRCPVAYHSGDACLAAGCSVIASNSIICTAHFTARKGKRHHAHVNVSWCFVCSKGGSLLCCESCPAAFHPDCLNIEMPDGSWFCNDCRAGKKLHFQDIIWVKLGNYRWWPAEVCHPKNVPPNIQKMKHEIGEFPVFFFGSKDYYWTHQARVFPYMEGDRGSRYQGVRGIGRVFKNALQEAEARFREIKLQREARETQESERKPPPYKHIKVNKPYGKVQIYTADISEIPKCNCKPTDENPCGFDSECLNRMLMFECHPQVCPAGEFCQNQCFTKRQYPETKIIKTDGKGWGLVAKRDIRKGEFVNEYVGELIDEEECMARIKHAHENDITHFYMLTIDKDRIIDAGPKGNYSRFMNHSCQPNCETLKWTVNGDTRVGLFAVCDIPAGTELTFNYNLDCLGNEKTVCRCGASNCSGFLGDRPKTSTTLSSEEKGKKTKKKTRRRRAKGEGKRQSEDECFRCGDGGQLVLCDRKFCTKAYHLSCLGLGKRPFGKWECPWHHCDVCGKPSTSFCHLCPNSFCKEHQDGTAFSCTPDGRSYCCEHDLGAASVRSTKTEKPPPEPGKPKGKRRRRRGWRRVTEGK
Assay type: biochemical
Active and inactive are the calls of the source.
Pick one and only one: class 1 = active, class 0 = inactive

Check the results log: what was the call for COc1cc(NC(C)CCCN)c2ncccc2c1Oc1ccccc1 (centres undefined) ? class 1

Assay result, entry `CCN(CC)Cc1cc(O)c(CN(CC)CC)cc1O` — outcome? class 0

Called result for `CSC1=NSC2=NC(=O)/C(=C\c3coc4ccccc4c3=O)C(=N)N12` class 1

Assay outcome for `Cc1[nH]c(=O)[nH]c1C(=O)CCCCC(=O)OCC(=O)Nc1ccccn1` : what was it? class 1

###

Target or system: Beta Lactamase (Pseudomonas aeruginosa)
Sequence (Q932Y6 whole entry): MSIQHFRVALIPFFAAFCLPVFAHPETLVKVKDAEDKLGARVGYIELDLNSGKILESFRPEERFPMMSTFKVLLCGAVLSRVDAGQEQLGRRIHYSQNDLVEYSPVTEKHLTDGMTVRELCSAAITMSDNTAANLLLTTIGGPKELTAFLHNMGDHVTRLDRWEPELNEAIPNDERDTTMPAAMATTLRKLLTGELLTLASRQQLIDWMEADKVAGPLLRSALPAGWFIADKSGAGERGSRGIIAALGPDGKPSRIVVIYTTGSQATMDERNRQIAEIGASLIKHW
Method summary: beta-lactamase reporter inhibitor potency, dose response, artefact control for TLR9-MyD88 binding inhibitor project, BLA reporter cells, FRET fluorescence (AID 588341);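 further: cell based assay in CHO-K1 cells stably expressing beta-lactamase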
Type: cell-based
Active and inactive are the calls of the source.
Response enum: 1 (yes) for active, 0 (no) for inactive

Record lookup: outcome of this test for `CCS(=O)(=O)c1ncc(Cl)c(C(=O)Nc2ccc(C)cc2)n1` ? 1 (yes)

Could you check what this test reported for `CC(=O)Nc1ccc2c(c1)Cc1cc(N3C(=O)C=CC3=O)ccc1-2` ? 1 (yes)

Could you check what this test reported for `Cc1ccccc1NC(=O)/C=C/c1ccc([N+](=O)[O-])s1` ? 0 (no)

Query: recorded result category for `Cc1c(Nc2cc(Cl)c3nonc3c2[N+](=O)[O-])c(=O)n(-c2ccccc2)n1C` in this test 1 (yes)

Entry CCCNC(=O)c1nnsc1[S+]([O-])c1ccc(Cl)cc1 (stereo not given) : call = ? 0 (no)

###

Can you tell me IC50 for the items I'm about to list?
Target or system: Caspase-3 (Homo sapiens);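 further: Dose-response selectivity test against caspase-3 for candidate inhibitors of sentrin-specific proteases (SENPs)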
Assay type: functional
Activity calls are given as the source filed them.

What does the record list as IC50 for `Cc1ccc(Nc2ncnc3c2oc2ccccc23)cc1` ? 28 µM (active)

Entry under review: `CCN(CC)c1ccc(/C=N/NC(=O)c2ccoc2C)c(O)c1` . Reported IC50? 0.942 µM (active)

I am curious: what IC50 value has been reported for `Cc1cccc(NCc2nc3ccccc3n2Cc2ccccc2)c1` ? 44.6 µM (active)

Which IC50 is listed for `CCOC(=O)c1cc2ccc3ccccc3c2s1` ? 49.5 µM (active)

Endpoint output: IC50 of `CCCOC(=O)c1ccc(NC(=O)/C=C/c2cccs2)cc1` . Value? 62.9 µM (active)
